# study_system: mTORC1 (Homo sapiens (Human), UniProt P42345+P62942)
# assay: mTORC1 inhibition, AlphaLISA of Phospho-p70 S6 kinase (p70S6K pT389) in PC-3 cells
# assay_setup: inhibition of p70S6K pT389 levels
Reported values of IC50 for individual entries
measured_parameter: IC50

INSERT INTO assay_data (molecule, val) VALUES
  ('COC1CC(CC(C)C2CC(=O)C(C)C=C(C)C(O)C(OC)C(=O)C(C)CC(C)C=CC=CC=C(C)C(OC3CC3)CC3CCC(C)C(O)(O3)C(=O)C(=O)N3CCCCC3C(=O)O2)CCC1OCCO (centres unmarked) [Compound 47]', '> 0.8 nM'),
  ('COCCS(=O)(=O)NC1CC2CCC(C)C(O)(O2)C(=O)C(=O)N2CCCCC2C(=O)OC(C(C)CC2CCC(O)C(OC)C2)CC(=O)C(C)C=C(C)C(O)C(OC)C(=O)C(C)CC(C)C=CC=CC=C1C (mixture of isomers)', '0.1 to 0.8 nM');

Sourced from patent US11603377B2
